- TARGET_SYSTEM: OPRK1 (Homo sapiens, UniProt P41145)
- Sequence (P41145 whole entry, species assumed): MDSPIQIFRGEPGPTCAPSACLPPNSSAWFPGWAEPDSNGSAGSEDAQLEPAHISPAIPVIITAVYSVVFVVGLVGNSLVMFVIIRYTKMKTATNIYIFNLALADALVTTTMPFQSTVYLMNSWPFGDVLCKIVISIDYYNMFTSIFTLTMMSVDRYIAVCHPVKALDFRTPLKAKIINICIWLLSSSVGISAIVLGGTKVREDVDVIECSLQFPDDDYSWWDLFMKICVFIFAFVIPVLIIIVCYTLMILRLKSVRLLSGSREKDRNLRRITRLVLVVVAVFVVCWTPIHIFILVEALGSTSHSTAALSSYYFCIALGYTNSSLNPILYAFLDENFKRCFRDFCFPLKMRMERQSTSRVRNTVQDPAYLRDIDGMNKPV
- ASSAY_COMMENT: SAFETYScan GPCR cAMP, Agonist
- EXPERIMENTAL_CONDITIONS: read-out: RC50 (EC50)
pEC50: −log10 of the molar value.

- COMPOUND: "C[C@H]1C[C@@H](O)CN(c2ncc(Cl)c(Nc3ccc4c(c3)c3c(c(=O)n4C)OCC(F)(F)[C@H](C4CC4)N3)n2)C1 [12a CCT373566]"
  pEC50: "< 5.00"

* * *

- TARGET_SYSTEM: CAV1.2 (Homo sapiens)
- Sequence (Q13936 whole entry): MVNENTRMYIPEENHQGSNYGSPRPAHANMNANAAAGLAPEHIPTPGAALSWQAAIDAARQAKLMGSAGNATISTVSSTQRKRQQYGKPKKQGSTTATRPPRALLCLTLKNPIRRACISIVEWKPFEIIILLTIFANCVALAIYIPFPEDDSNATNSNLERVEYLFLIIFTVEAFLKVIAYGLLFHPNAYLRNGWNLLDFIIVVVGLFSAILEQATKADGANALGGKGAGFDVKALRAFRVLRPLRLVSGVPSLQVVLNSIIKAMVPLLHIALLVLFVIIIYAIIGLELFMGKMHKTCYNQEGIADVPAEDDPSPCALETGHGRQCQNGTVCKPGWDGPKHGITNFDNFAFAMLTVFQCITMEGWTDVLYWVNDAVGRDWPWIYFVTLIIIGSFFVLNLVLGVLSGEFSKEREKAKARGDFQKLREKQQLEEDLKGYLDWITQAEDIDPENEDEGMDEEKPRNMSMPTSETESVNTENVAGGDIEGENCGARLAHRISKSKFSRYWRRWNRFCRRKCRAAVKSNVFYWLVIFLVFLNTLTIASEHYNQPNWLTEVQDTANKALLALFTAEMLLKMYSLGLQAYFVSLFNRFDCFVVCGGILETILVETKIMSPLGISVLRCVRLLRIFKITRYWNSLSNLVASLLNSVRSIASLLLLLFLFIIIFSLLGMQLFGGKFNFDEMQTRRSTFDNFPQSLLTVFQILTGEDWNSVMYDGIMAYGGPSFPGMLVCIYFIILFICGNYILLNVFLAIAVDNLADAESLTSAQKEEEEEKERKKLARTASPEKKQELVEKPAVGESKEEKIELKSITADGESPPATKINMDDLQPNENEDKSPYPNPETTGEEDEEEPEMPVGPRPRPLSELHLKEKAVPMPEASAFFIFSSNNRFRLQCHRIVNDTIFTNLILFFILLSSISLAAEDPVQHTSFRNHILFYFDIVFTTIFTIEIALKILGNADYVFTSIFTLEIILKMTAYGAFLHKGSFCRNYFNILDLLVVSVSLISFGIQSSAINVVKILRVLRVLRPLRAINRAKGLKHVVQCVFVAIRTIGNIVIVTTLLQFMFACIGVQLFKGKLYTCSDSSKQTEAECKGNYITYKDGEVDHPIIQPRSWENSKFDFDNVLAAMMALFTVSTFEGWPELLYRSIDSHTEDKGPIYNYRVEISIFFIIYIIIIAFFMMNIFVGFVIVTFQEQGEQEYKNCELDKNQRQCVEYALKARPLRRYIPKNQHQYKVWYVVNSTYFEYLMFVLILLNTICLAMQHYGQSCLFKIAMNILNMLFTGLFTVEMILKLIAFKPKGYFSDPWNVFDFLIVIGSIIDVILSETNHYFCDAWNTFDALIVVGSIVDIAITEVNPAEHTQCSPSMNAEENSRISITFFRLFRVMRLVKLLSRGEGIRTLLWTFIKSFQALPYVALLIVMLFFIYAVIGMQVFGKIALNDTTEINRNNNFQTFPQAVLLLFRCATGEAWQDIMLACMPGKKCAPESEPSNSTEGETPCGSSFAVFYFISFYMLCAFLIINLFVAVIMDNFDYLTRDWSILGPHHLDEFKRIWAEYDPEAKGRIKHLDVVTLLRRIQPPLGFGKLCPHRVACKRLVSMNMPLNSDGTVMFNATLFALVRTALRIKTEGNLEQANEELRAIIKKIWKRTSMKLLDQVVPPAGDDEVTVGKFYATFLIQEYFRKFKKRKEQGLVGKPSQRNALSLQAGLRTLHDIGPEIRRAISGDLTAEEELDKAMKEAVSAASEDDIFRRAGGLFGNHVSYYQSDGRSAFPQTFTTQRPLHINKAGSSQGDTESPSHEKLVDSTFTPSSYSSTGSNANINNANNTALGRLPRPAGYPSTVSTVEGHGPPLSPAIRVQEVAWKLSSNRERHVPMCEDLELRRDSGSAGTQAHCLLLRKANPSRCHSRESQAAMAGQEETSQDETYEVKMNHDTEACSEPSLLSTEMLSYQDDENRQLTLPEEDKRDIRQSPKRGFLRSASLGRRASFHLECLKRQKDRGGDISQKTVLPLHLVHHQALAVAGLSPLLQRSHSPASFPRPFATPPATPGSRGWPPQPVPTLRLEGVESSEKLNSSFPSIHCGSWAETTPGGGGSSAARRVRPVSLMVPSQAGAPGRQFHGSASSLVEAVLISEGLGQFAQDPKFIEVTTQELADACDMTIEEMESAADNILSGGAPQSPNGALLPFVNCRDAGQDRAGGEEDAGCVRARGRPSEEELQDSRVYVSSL
- Sequence (Q08289 whole entry partner): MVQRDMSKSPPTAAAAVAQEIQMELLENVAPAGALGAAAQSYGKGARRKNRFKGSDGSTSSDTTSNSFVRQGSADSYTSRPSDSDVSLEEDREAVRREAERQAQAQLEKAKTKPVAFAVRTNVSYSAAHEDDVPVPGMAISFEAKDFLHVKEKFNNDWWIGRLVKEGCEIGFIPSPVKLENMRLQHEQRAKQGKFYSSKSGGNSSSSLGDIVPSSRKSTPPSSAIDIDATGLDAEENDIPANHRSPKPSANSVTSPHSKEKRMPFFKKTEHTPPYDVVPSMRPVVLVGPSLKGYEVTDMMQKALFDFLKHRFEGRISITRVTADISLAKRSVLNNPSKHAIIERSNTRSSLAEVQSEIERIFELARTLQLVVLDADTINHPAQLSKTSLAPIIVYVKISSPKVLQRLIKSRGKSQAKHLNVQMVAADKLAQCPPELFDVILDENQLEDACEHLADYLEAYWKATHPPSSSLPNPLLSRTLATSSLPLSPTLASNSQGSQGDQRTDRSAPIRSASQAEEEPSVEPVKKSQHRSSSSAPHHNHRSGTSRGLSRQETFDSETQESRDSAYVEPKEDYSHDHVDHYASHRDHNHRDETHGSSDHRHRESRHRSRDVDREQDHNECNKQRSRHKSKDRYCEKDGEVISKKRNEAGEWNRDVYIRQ
- Sequence (P54289 25-946 partner limits assumed): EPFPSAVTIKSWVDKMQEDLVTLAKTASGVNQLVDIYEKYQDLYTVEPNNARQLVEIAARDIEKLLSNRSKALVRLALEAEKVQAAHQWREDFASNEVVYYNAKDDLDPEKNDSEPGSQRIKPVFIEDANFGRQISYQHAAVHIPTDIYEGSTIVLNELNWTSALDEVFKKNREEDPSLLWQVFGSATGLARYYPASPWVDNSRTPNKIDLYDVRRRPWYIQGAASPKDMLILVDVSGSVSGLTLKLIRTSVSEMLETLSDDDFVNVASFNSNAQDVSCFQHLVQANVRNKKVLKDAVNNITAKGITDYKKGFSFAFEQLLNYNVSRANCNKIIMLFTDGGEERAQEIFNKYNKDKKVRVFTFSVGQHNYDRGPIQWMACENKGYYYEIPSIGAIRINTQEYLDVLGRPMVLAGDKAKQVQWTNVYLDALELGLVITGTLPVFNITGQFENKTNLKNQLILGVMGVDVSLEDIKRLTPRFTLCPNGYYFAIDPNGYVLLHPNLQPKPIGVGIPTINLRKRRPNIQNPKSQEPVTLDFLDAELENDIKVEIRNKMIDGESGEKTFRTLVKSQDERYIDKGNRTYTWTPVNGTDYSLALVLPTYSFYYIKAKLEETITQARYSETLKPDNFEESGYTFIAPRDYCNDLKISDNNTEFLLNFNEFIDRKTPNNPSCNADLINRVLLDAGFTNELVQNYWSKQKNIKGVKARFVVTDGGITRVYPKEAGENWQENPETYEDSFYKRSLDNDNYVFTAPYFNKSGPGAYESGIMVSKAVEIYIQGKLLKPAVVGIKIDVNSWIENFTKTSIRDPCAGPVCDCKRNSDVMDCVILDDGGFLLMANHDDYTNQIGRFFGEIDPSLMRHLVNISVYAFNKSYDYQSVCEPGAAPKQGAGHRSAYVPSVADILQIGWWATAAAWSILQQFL
- Sequence (P54289 947-1103 partner limits assumed): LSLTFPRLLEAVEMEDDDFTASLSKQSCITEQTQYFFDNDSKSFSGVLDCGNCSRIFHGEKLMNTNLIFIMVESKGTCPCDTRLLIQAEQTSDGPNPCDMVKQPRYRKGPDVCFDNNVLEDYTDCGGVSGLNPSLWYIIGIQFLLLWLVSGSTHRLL
- ASSAY_COMMENT: SAFETYScan Ion Channel, Blocker
- EXPERIMENTAL_CONDITIONS: read-out: RC50 (IC50)
pIC50: −log10 of the molar value.
READOUT_KIND: pIC50

- COMPOUND: "C[C@H]1C[C@@H](O)CN(c2ncc(Cl)c(Nc3ccc4c(c3)c3c(c(=O)n4C)OCC(F)(F)[C@H](C4CC4)N3)n2)C1 [12a CCT373566]"
  TARGET_SYSTEM: "CAV1.2 (Homo sapiens)"
  RESULT: "< 5.00"

src = paper PMC9234961
